Biological target: PBP3 from Escherichia coli (Escherichia coli)
Construct: made in house
Sequence (P0AD68 1-577): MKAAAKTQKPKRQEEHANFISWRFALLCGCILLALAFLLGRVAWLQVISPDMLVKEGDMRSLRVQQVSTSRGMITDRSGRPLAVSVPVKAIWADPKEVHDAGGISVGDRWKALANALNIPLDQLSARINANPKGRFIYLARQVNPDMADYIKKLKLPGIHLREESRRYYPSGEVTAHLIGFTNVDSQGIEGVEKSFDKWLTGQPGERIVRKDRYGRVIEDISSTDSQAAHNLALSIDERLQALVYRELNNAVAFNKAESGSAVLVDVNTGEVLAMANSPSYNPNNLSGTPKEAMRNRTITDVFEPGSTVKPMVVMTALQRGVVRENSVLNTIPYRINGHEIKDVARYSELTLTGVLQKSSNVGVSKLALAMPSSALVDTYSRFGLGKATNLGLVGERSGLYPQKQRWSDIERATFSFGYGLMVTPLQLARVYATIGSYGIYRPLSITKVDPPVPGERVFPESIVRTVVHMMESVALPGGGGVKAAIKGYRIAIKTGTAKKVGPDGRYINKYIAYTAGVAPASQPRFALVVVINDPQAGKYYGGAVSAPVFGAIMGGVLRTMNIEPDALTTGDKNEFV
Assay: Fluorescence polarization competition binding assay with Bocillin-FL
pEC50: −log10 of the molar value.
Below is a list of entries, each paired with its recorded pEC50 value.

Answered cases to consult:
>  <compound>
CCN1CCN(C(=O)NC(Cc2ccccc2)C(=O)N[C@H]2Cc3cccc(C(=O)O)c3OB2O)C(=O)C1=O (some centres unmarked) [Example 79]

>  <target.of.assay>
PBP3 from Escherichia coli (Escherichia coli)

>  <pEC50>
3.30 to 4.52

$$$$
>  <compound>
CCN1CCN(C(=O)N[C@@H](C(=O)N[C@H]2Cc3cccc(C(=O)O)c3OB2O)C(C)C)C(=O)C1=O [Example 78]

>  <target.of.assay>
PBP3 from Escherichia coli (Escherichia coli)

>  <pEC50>
> 4.52

$$$$
>  <compound>
CC1(C)S[C@@H]2[C@H](NC(=O)[C@H](N)c3ccccc3)C(=O)N2[C@H]1C(=O)O [ampicillin, reference compound]

>  <target.of.assay>
PBP3 from Escherichia coli (Escherichia coli)

>  <pEC50>
5.85

$$$$
>  <compound>
CCN1CCN(C(=O)NC(C(=O)N[C@H]2Cc3cccc(C(=O)O)c3OB2O)c2csc(N)n2)C(=O)C1=O (some centres unmarked) [Example 12]

>  <target.of.assay>
PBP3 from Escherichia coli (Escherichia coli)

>  <pEC50>
> 4.52

$$$$
>  <compound>
CCN1CCN(C(=O)NC(C(=O)N[C@H]2Cc3cccc(C(=O)O)c3OB2O)c2csc(NCCN)n2)C(=O)C1=O (some centres unmarked) [Example 63]

>  <target.of.assay>
PBP3 from Escherichia coli (Escherichia coli)

>  <pEC50>
3.30 to 4.52

$$$$

So, Nc1nc(C(NC(=O)N2CCN(C3CC3)C(=O)C2=O)C(=O)N[C@H]2Cc3cccc(C(=O)O)c3OB2O)cs1 (some centres unmarked) [Example 44] ? Its pEC50 was 3.30 to 4.52

So, CCN1CCN(C(=O)N[C@@H](C(=O)N[C@H]2Cc3cccc(C(=O)O)c3OB2O)C(C)(C)C)C(=O)C1=O [Example 85] ? Its pEC50 was > 4.52

So, CCN1CCN(C(=O)N[C@@H](C(=O)N[C@H]2Cc3cccc(C(=O)O)c3OB2O)[C@H](C)O)C(=O)C1=O [Example 47] ? Its pEC50 was < 3.30

So, CCN1CCN(C(=O)N[C@H](CCO)C(=O)N[C@H]2Cc3cccc(C(=O)O)c3OB2O)C(=O)C1=O [Example 59] ? Its pEC50 was < 3.30

So, Nc1nc(C(NC(=O)N2CCN(CCF)C(=O)C2=O)C(=O)N[C@H]2Cc3cccc(C(=O)O)c3OB2O)cs1 (some centres unmarked) [Example 52] ? Its pEC50 was 3.30 to 4.52

So, CCN1CCN(C(=O)NC(C(=O)N[C@H]2Cc3cc(OC)cc(C(=O)O)c3OB2O)c2csc(N)n2)C(=O)C1=O (some centres unmarked) [Example 38] ? Its pEC50 was < 3.30

* * *

Consider the following MIC values measured on hyper-permeable E. coli 901C.

>  <compound>
Nc1nc(C(=O)NC(C(=O)N[C@H]2Cc3cccc(C(=O)O)c3OB2O)c2csc(N)n2)cs1 (stereo partly drawn) [Example 17]

>  <MIC>
< 64 µg/mL

$$$$

Result for COC(=O)C(=O)NC(C(=O)N[C@H]1Cc2cccc(C(=O)O)c2OB1O)c1csc(N)n1 (stereo partly drawn) [Example 28] , tested on hyper-permeable E. coli 901C, MIC: < 64 µg/mL

Result for CCN1CCN(C(=O)NC(C(=O)N[C@H]2Cc3cc(O)cc(C(=O)O)c3OB2O)c2csc(N)n2)C(=O)C1=O (stereo partly drawn) [Example 39] , tested on hyper-permeable E. coli 901C, MIC: < 64 µg/mL

Result for CCC(O)[C@H](NC(=O)N1CCN(CC)C(=O)C1=O)C(=O)N[C@H]1Cc2cccc(C(=O)O)c2OB1O (single isomer, unassigned) [Example 83] , tested on hyper-permeable E. coli 901C, MIC: 64 to 128 µg/mL

Result for Nc1nc(C(NC(=O)N2CCN(C3CC3)C(=O)C2=O)C(=O)N[C@H]2Cc3cccc(C(=O)O)c3OB2O)cs1 (stereo partly drawn) [Example 44] , tested on hyper-permeable E. coli 901C, MIC: < 64 µg/mL

Result for Nc1nc(C(NS(=O)(=O)c2cccnc2)C(=O)N[C@H]2Cc3cccc(C(=O)O)c3OB2O)cs1 (stereo partly drawn) [Example 27] , tested on hyper-permeable E. coli 901C, MIC: < 64 µg/mL
